Values were extracted from ChEMBL document CHEMBL4004841.

experiment: Cytotoxicity against human P4R5 cells; format: cell-based
Measured attribute: CC50

[[record]]
structure_smiles_string = "Cc1c(CC2CCCCC2)n(COCCc2ccc(F)cc2)c(=O)n(O)c1=O"
result = "> 100 µM"

[[record]]
structure_smiles_string = "Cc1c(CC2CCCCC2)n(COCc2ccc(C(F)(F)F)cc2)c(=O)n(O)c1=O"
result = "> 100 µM"


Consider the record given below.
Using the record for CCc1c(CC2CCCCC2)n(COCc2ccc(C)cc2)c(=O)n(O)c1=O , report its CC50.
> 100 µM
